test: Microsomal stability assay, human liver microsomes; details: human liver microsomal data;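 also: pooled human liver microsomes at 0.25 mg/mL with 1 µM compound and NADPH at 37 °C, pH 7.4, for 30 min, unchanged parent quantified by LC-MS/MS against the 0 min sample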
Readout: HLM (µL/min/mg)
Answer in µL/min/mg, number only, no unit symbol.

Example entries and their recorded answers appear below.
COCC(=O)N[C@@H](Cc1cccc(F)c1)[C@H](O)CN[C@H]1CC2(CCC2)Oc2ccc(C[C@@H](C)F)cc21 [compound 559] :: 706
CC(C)(C)Cc1cnc2c(c1)[C@@H](NC[C@@H](O)[C@H](Cc1ccc(F)cc1)NC(=O)[C@@H]1CCO1)CC1(CCC1)O2 [Example 441] :: 416
C#Cc1cccc(C[C@H](NC(=O)COC)[C@H](O)CN[C@H]2CC3(CCC3)Oc3ncc(CC)cc32)c1 [compound 842] :: 55

May I ask what HLM has been recorded for COCC(=O)N[C@@H](Cc1cccc(F)c1)[C@H](O)CN[C@H]1CC2(CCC2)Oc2c1cc([C@H](n1ccnc1)C(C)(C)C)cc2-n1ccnc1 [compound 563] ?
40

May I ask what HLM has been recorded for COCC(=O)N[C@@H](Cc1cccc(-c2ncc(C)s2)c1)[C@H](O)CN[C@H]1CC2(CCC2)Oc2ncc(CC(C)(C)C)cc21 [compound 759] ?
436

May I ask what HLM has been recorded for CCO[C@@H](C)C(=O)N[C@@H](Cc1ccc2c(c1)OCO2)[C@H](O)CN[C@H]1CC2(CCC2)Oc2ncc(CC(C)(C)C)cc21 [compound 888] ?
29

====

molecular target: Beta Secretase enzyme (BACE) (Homo sapiens, UniProt P56817); test: In vitro enzymatic BACE FRET (fluorescence resonance energy transfer) assay; format: biochemical; settings: BACE enzyme FRET assay; read-out: BACE1 FRET assay (IC50);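 also: fluorescence read after 1 h with 50 nM quenched peptide substrate spanning the BACE cleavage site, in pH 4.2 acetate buffer containing 10% DMSO and nonionic detergent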
Sequence (P56817 46-501): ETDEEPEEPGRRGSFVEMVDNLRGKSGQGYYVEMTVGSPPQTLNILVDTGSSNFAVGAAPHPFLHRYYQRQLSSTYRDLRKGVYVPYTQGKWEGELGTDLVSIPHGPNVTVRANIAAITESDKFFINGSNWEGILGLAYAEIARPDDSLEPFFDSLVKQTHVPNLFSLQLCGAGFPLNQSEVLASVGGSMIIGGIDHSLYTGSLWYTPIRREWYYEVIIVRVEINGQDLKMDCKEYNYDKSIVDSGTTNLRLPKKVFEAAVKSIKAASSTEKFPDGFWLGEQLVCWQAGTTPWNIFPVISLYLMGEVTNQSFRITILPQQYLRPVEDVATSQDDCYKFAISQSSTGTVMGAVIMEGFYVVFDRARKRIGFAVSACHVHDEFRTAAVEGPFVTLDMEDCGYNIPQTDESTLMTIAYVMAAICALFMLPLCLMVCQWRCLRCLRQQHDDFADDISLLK
Readout: log10(IC50) (log10 of the value in nM)
Log scale reminder: IC50 in nM, then log10 taken.

COCC(=O)N[C@@H](Cc1ccc2c(c1)OC(F)(F)O2)[C@H](O)CN[C@H]1CC2(CCC2)Oc2ncc(CC(C)(C)C)cc21 [compound 291] :: 1.62
CO[C@@H](C)C(=O)N[C@@H](Cc1ccc2c(c1)OC(F)(F)O2)[C@H](O)CN[C@H]1CC2(CCC2)Oc2ncc(CC(C)(C)C)cc21 [compound 296] :: 2.01
CC(=O)NC(Cc1ccc(F)cc1)C(O)CNC1CC2(CC(O)C2)Oc2ncc(CC(C)C)cc21 (stereo not drawn) [compound 251] :: 0.80
CO[C@H](C)C(=O)N[C@@H](Cc1cccc(F)c1)[C@H](O)CN[C@H]1CC2(CCC2)Oc2ncc(CC(C)(C)F)cc21 [compound 301] :: 0.89
COC(=O)N[C@@H](Cc1ccc2c(c1)OCO2)[C@H](O)CN[C@H]1CC2(CCC2)Oc2ncc(CC(C)(C)C)cc21 [compound 289] :: 1.89

May I ask what log10(IC50) has been recorded for CO[C@H](C)C(=O)N[C@@H](Cc1ccc2c(c1)OCO2)[C@H](O)CN[C@H]1CC2(CCC2)Oc2ncc(CCC(F)(F)F)cc21 [compound 194] ?
3.03

====

Listing of entries alongside the reported pIC50.
biological target: Beta Secretase enzyme (BACE) (Homo sapiens); assay: In vitro enzymatic BACE FRET (fluorescence resonance energy transfer) assay; type: biochemical; details: BACE enzyme assay; read-out: BACE1 FRET assay (IC50)
For clarity, pIC50 is expressed as the negative log10 of concentration in mol/L.

Example entries and their recorded answers appear below.
CO[C@H](C)C(=O)N[C@@H](Cc1cccc(F)c1)[C@H](O)CN[C@H]1CC2(CCC2)Oc2ncc(CC(C)(C)C(F)(F)F)cc21 [compound 74] :: 7.52
COCC(=O)N[C@@H](Cc1ccc2c(c1)OCO2)[C@H](O)CN[C@H]1CC2(CCC2)Oc2c1cc(CC(C)(C)C)nc2NCC(F)(F)F [compound 142] :: 6.46
CC(=O)N[C@@H](Cc1ccc(F)cc1)[C@H](O)CN[C@H]1CC2(CCC2)Oc2ccc(CC(C)(C)C#N)cc21 [compound 161] :: 7.95
CC(C)(C)Cc1cnc2c(c1)[C@@H](NC[C@@H](O)[C@H](Cc1cc(F)cc(F)c1)NC(=O)C(F)(F)Cl)CC1(CCC1)O2 [compound 96] :: 9.64
COCC(=O)N[C@@H](Cc1cc(F)cc(F)c1)[C@H](O)CN[C@H]1CC2(CCC2)Oc2ncc(CC(C)(C)C#N)cc21 [compound 92] :: 8.49

May I ask what pIC50 has been recorded for CC(C)(C)Cc1cnc2c(c1)[C@@H](NC[C@@H](O)[C@H](Cc1cc(F)cc(F)c1)NC(=O)CCl)CC1(CCC1)O2 [compound 104] ?
8.43

====

molecular target: Beta Secretase enzyme (BACE) (Homo sapiens); test: In vitro enzymatic BACE FRET (fluorescence resonance energy transfer) assay; format: biochemical; conditions: Table 2; read-out: BACE1 FRET assay
Listing of entries alongside the reported pIC50.
For clarity, pIC50 is expressed as the negative log10 of concentration in mol/L.

Example entries and their recorded answers appear below.
COCC(=O)N[C@@H](Cc1cccc(C#N)c1)[C@H](O)CN[C@H]1CC2(CC(F)(F)C2)Oc2ncc(CC(C)(C)C)cc21 :: 8.40
COCC(=O)N[C@@H](Cc1cc(F)cc(F)c1)[C@H](O)CN[C@H]1CC2(CCC2)Oc2c(Br)cc(CC(C)(C)C)cc21 :: 8.40

May I ask what pIC50 has been recorded for `COCC(=O)N[C@@H](Cc1ccnc(OC)c1)[C@H](O)CN[C@H]1CC2(CCC2)Oc2ncc(CC(C)(C)C)cc21` ?
7.89

May I ask what pIC50 has been recorded for `CC(C)(C)Cc1cnc2c(c1)[C@@H](NC[C@@H](O)[C@H](Cc1cccc(C#N)c1)NC(=O)c1ncccc1F)CC1(CC(F)(F)C1)O2` ?
8.05

====

Listing of entries alongside the reported IC50.
target: Beta Secretase enzyme (BACE) (Homo sapiens); test: In vitro enzymatic BACE FRET (fluorescence resonance energy transfer) assay; type: biochemical; conditions: BACE enzyme assay, IC50's in uM; read-out: BACE1 FRET assay
Answer in µM, number only, no unit symbol.

Example entries and their recorded answers appear below.
CC#Cc1cccc(C[C@H](NC(=O)COC)[C@H](O)CN[C@H]2CC3(CCC3)Oc3ncc(CC(C)C)cc32)c1 :: 0.005
CO[C@H](C)C(=O)N[C@@H](Cc1cncs1)[C@H](O)CN[C@H]1CC2(CCC2)Oc2ncc([C@@H]3CC3(C)C)cc21 :: 0.005

May I ask what IC50 has been recorded for `C#Cc1cc(F)cc(C[C@H](NC(=O)[C@@H](C)OC)[C@H](O)CN[C@H]2CC3(CCC3)Oc3ncc(CC(C)C)cc32)c1` ?
0.006

May I ask what IC50 has been recorded for `CCO[C@H](C)C(=O)N[C@@H](Cc1ccc2c(c1)OCO2)[C@H](O)CN[C@H]1CC2(CCC2)Oc2ncc(CC(C)(C)C)cc21` ?
0.102

May I ask what IC50 has been recorded for `CCOCC(=O)N[C@@H](Cc1ccc2c(c1)OCO2)[C@H](O)CN[C@H]1CC2(CCC2)Oc2ncc(CC(C)(C)C)cc21` ?
0.021

May I ask what IC50 has been recorded for `C#Cc1cccc(C[C@H](NC(=O)[C@H]2CCCO2)[C@H](O)CN[C@H]2CC3(CCC3)Oc3ncc(CC(C)(C)C)cc32)c1` ?
0.006

May I ask what IC50 has been recorded for `COCC(=O)N[C@@H](Cc1cccc([C@H]2CCCO2)c1)[C@H](O)CN[C@H]1CC2(CCC2)Oc2ncc(CC(C)(C)C)cc21` ?
9.5

May I ask what IC50 has been recorded for `CC(C)(C)Cc1cnc2c(c1)[C@@H](NC[C@@H](O)[C@H](Cc1cc(F)cc(-c3nccs3)c1)NC(=O)CF)CC1(CCC1)O2` ?
0.004

May I ask what IC50 has been recorded for `CO[C@H](C)C(=O)N[C@@H](Cc1cccc(Br)c1)[C@H](O)CN[C@H]1CC2(CCC2)Oc2ncc(CC(C)C)cc21` ?
0.016

May I ask what IC50 has been recorded for `CCCc1cnc2c(c1)[C@@H](NC[C@@H](O)[C@H](Cc1cc(F)cc(-c3nccs3)c1)NC(=O)[C@@H](C)OC)CC1(CCC1)O2` ?
0.043

May I ask what IC50 has been recorded for `CC#Cc1cccc(C[C@H](NC(=O)[C@@H](C)OC)[C@H](O)CN[C@H]2CC3(CCC3)Oc3ncc(CC(C)C)cc32)c1` ?
0.022

May I ask what IC50 has been recorded for `C#Cc1cc(C#C)cc(C[C@H](NC(=O)COC)[C@H](O)CN[C@H]2CC3(CCC3)Oc3ncc(CC(C)(C)C)cc32)c1` ?
0.005

May I ask what IC50 has been recorded for `COCC(=O)N[C@@H](Cc1ccc(-c2nccs2)c(F)c1)[C@H](O)CN[C@H]1CC2(CCC2)Oc2ncc(CC(C)C)cc21` ?
0.11
